meta.source: ChEMBL document CHEMBL5360530

Give measured Ratio IC50 for each item. Keep answers brief.
System: PC-3
Assay: Potency index, ratio of cisplatin IC50 to test compound IC50 for anticancer activity against human PC-3 cells
Format: functional

The measured Ratio IC50 associated with "O=C(c1c[nH]c2ccccc12)[C@@H]1[C@@H](c2cccc(F)c2)[C@@H]2CSCN2[C@@]12C(=O)Nc1ccccc12" reads >2.9

Summary for this compound, "O=C(c1c[nH]c2ccccc12)[C@@H]1[C@@H](c2cccc(Br)c2)[C@@H]2CSCN2[C@@]12C(=O)Nc1ccccc12" : Ratio IC50 is >2.9

Per the record, "O=C(c1c[nH]c2ccccc12)[C@@H]1[C@@H](c2ccc(Br)cc2)[C@@H]2CSCN2[C@@]12C(=O)Nc1ccccc12" has Ratio IC50 of >3

The value of Ratio IC50 measured for the compound "O=C(/C=C/c1ccc(Cl)cc1Cl)[C@H]1[C@H](c2ccc(Cl)cc2Cl)[C@H]2CSCN2[C@]12C(=O)Nc1ccccc12" turned out to be 1.8

====

Tested on: MCF7
Test: Growth inhibition of human MCF7 cells assessed as cell growth inhibition by SRB assay
Format: functional
OBSERVATION TYPE: GI50

Value of measured GI50 for the entry "O=C(/C=C/c1c(Cl)cccc1Cl)c1ccc(OCCN2CCCC2)cc1" : > 80 µg/mL

GI50 reading for "O=C(/C=C/c1ccc(Cl)cc1Cl)c1ccc(OCCN2CCCC2)cc1" : 24.7 µg/mL

Reported GI50 of "O=C(/C=C/c1ccco1)c1ccc(OCCN2CCCC2)cc1" : > 80 µg/mL

The compound listed as "CC/C(=C(\c1ccccc1)c1ccc(OCCN(C)C)cc1)c1ccccc1" has a reported GI50 of < 10 µg/mL

Documented GI50 of COc1cccc2c1C(=O)c1c(O)c3c(c(O)c1C2=O)C[C@@](O)(C(=O)CO)C[C@@H]3O[C@H]1C[C@H](N)[C@H](O)[C@H](C)O1.Cl [DOXORUBICIN HYDROCHLORIDE] : < 10 µg/mL

So for "O=C(/C=C/c1ccccc1)c1ccc(OCCN2CCCC2)cc1" , the logged GI50 turned out to be < 10 µg/mL

Reported GI50 of "O=C(/C=C/c1ccc(OCCN2CCCC2)cc1)c1ccc(Cl)cc1Cl" : > 80 µg/mL

====

Tested on: MCF7
Assay: Anticancer activity against human MCF7 cells assessed as cell growth inhibition measured after 24 hrs by MTT assay
Format: functional, cell-based
Details: MCF7, 24 h
Could you please report measured IC50 for the items listed next?
Please give a number only; it is taken to be in µM.

Noted for "CC(C)(C)c1cc(/C=N/N2C(=O)c3ccccc3C2=O)c(O)c(C(C)(C)C)c1" : its IC50 reads 293

The compound listed as "CC/C(=C(\c1ccccc1)c1ccc(OCCN(C)C)cc1)c1ccccc1" shows IC50 equal to 20.2

So, "O=C1c2ccccc2C(=O)N1/N=C/c1ccc(F)c(Br)c1" ? Its IC50 was 293

"O=C1c2ccccc2C(=O)N1/N=C/c1ccccc1" has a reported IC50 of 293

# compound "COc1cc(/C=N/N2C(=O)c3ccccc3C2=O)cc(OC)c1O" ; its IC50 = 293

====

Tested on: MCF7
Test: Anticancer activity against human MCF7 cells assessed as cell growth inhibition at 100 uM by MTT assay relative to control
Format: functional
OBSERVATION TYPE: inhibition at 100 µM (%)
Give the value in % but do not write % after it.

Form field inhibition at 100 µM, entry "CCCCCCCCCCCCCCCC(=O)N1CC[C@H](COP(=O)([O-])OCC[N+](C)(C)C)C1" : 74.6

Given item "CCCCCCCCCCCCCCCC(=O)N1CCC[C@@H]1OP(=O)([O-])OCC[N+](C)(C)C" , the value recorded as its inhibition at 100 µM is 22.6

Documented inhibition at 100 µM of "CCCCCCCC/C=C\CC(=O)N1CCC[C@@H]1COP(=O)([O-])OCC[N+](C)(C)C" : 93

The recorded inhibition at 100 µM for "CCCCCCCC/C=C\CC(=O)N1CC[C@H](OP(=O)([O-])OCC[N+](C)(C)C)C1" is 22.6

Reported inhibition at 100 µM of "CCCCCC/C=C\CCCCCCCC(=O)N1CC[C@H](OP(=O)([O-])OCC[N+](C)(C)C)C1" : 22.6

In plain terms, "CCCCCCCCCCCCCCCCCC/C=C\CCCCCCCC(=O)N1CCC[C@@H]1OP(=O)([O-])OCC[N+](C)(C)C" has a documented inhibition at 100 µM of 22.6

Recorded result, "CCCCCCCCCCCCCCCCC/C=C\CCCCCCCC(=O)N1CC[C@H](OP(=O)([O-])OCC[N+](C)(C)C)C1" , inhibition at 100 µM: 22.6

Note to self: inhibition at 100 µM recorded for "CCCCCCCC/C=C\CC(=O)N1CCC[C@H]1COP(=O)([O-])OCC[N+](C)(C)C" was 91

Record "CCCCCC/C=C\CCCCCCCC(=O)N1CCC[C@H]1OP(=O)([O-])OCC[N+](C)(C)C" . Reported inhibition at 100 µM: 22.6

Notebook: "CCCCCC/C=C\CCCCCCCC(=O)N1CCC[C@@H]1OP(=O)([O-])OCC[N+](C)(C)C" , inhibition at 100 µM read as 22.6

GET /value?item= "CCCCCCCCCCCCCCCCOP(=O)([O-])OCC[N+](C)(C)C" &field=inhibition at 100 µM returns 69.4

Recorded inhibition at 100 µM (molecule "CCCCCCCCCCCCCCCCCC/C=C\CCCCCCCC(=O)N1CCC[C@H]1OP(=O)([O-])OCC[N+](C)(C)C" ): 22.6

In plain terms, "CCCCCCCCCCCCCCCC(=O)N1CCC[C@H]1OP(=O)([O-])OCC[N+](C)(C)C" has a documented inhibition at 100 µM of 22.6

get_value(item= "CCCCCCCCCCCCCCCCC/C=C\CCCCCCCC(=O)N1CC[C@@H](OP(=O)([O-])OCC[N+](C)(C)C)C1" , readout=inhibition at 100 µM) returns 22.6

Entry "CCCCCCCCCCCCCCCC(=O)N1CC[C@@H](OP(=O)([O-])OCC[N+](C)(C)C)C1" , inhibition at 100 µM reported as 22.6

Lab note: "CCCCCC/C=C\CCCCCCCC(=O)N1CC[C@@H](OP(=O)([O-])OCC[N+](C)(C)C)C1" gave inhibition at 100 µM of 22.6

response.value for "CCCCCCCC/C=C\CC(=O)N1CC[C@@H](COP(=O)([O-])OCC[N+](C)(C)C)C1" (field: inhibition at 100 µM) = 92.9

====

Could you please report measured IC50 for the items listed next?
Tested on: MCF7
Test: Anticancer activity against human MCF7 cells assessed as cell growth inhibition measured after 48 hrs by MTT assay
Format: functional, cell-based
Conditions: MCF7, 48 h
Express it in µM; write the number only.

For record "N#C[C@H]1CCCN1CC(=O)Nc1cc2ccccc2oc1=O" the listed IC50 is 4.37

Kindly note the recorded IC50 for Cc1ccc(S(=O)(=O)N2CCCC2C(=O)Nc2ccc3c(C)cc(=O)oc3c2)cc1 (single isomer, unassigned) , which is 1.07

Recorded IC50 (molecule "NC(=O)[C@H]1CCCN1CC(=O)Nc1cc2ccccc2oc1=O" ): 0.355

So for "CCOC(=O)[C@H]1CCCN1CC(=O)Nc1cc2ccccc2oc1=O" , the logged IC50 turned out to be 9.27

Data point: "Cc1cc(=O)oc2cc(NC(=O)CN3CCC[C@@H]3C(N)=O)ccc12" ; IC50 = 0.355

IC50 in this record for "O=C(Nc1cc2ccccc2oc1=O)[C@@H]1CCCN1S(=O)(=O)c1ccccc1" : 9.34

Memo: O=C1CCC(=O)N1CC(=O)N1N=C(c2ccccc2)CC1c1ccc(F)cc1 (stereo not drawn) , reported IC50: 0.39

"O=C(Nc1cc2ccccc2oc1=O)[C@@H]1CCCN1S(=O)(=O)c1ccc(Cl)cc1" has a reported IC50 of 4.39

For O=C1CCC(=O)N1CC(=O)N1N=C(c2ccccc2)CC1c1ccccc1 (stereo not drawn) the molecule record lists IC50 as 0.39

GET /value?item= O=C(/C=C/c1ccc(Br)cc1)[C@H]1[C@H](c2ccc(Br)cc2)C2CSCN2C12C(=O)Nc1c(Br)cc(Br)cc12 (stereo partly drawn) &field=IC50 returns 2.5

Quick note, IC50 for CC(=O)O[C@H]1C(=O)[C@@]2(C)[C@H]([C@H](OC(=O)c3ccccc3)[C@]3(O)C[C@H](OC(=O)[C@H](O)[C@@H](NC(=O)c4ccccc4)c4ccccc4)C(C)=C1C3(C)C)[C@]1(OC(C)=O)CO[C@@H]1C[C@@H]2O [PACLITAXEL] landed at 47.2

Looking up CCc1ccc(CCOc2ccc(CC3SC(=O)NC3=O)cc2)nc1 (stereo not drawn) [PIOGLITAZONE] , I see its IC50 listed as 0.07

The recorded IC50 for entry "Cc1cc(=O)oc2cc(NC(=O)[C@@H]3CCCN3S(=O)(=O)c3ccc(Cl)cc3)ccc12" equals 7.05

Lab note: O=C1CCC(=O)N1CC(=O)N1N=C(c2ccccc2)CC1c1ccc(Cl)c(Cl)c1 (stereo not drawn) gave IC50 of 0.78

Input "Cc1cc(=O)oc2cc(NC(=O)CN3CCC[C@@H]3C#N)ccc12" . Output IC50: 4.43

GET /value?item= O=c1[nH]cc(F)c(=O)[nH]1 [FLUOROURACIL] &field=IC50 returns 45
